# System: AncSR2 DBD (reconstructed ancestral)
# Test method notes: fluorescence polarization
# Study conditions: FP: 20 mM Tris-HCl pH 7.4, 150 mM NaCl, 5% glycerol; 10 nM FAM-DNA, 1 nM-50 uM DBD; temperature not stated
Reported metric: Kd (nM)
Answers are plain numbers, in nM.

Query block: # get_value(readout='Kd', item= CCAGAACGGAGCGTTCTGA / TCAGAACGCTCCGTTCTG [pre-GBS] )
Result block: 811
